Target: T1, monkey MET ECD (cynomolgus monkey, UniProt A0A2K5UM36 25-932)
T1 construct: also called simian MET; cynomolgus monkey MET
T1 sequence (A0A2K5UM36 entry or part of it limits assumed): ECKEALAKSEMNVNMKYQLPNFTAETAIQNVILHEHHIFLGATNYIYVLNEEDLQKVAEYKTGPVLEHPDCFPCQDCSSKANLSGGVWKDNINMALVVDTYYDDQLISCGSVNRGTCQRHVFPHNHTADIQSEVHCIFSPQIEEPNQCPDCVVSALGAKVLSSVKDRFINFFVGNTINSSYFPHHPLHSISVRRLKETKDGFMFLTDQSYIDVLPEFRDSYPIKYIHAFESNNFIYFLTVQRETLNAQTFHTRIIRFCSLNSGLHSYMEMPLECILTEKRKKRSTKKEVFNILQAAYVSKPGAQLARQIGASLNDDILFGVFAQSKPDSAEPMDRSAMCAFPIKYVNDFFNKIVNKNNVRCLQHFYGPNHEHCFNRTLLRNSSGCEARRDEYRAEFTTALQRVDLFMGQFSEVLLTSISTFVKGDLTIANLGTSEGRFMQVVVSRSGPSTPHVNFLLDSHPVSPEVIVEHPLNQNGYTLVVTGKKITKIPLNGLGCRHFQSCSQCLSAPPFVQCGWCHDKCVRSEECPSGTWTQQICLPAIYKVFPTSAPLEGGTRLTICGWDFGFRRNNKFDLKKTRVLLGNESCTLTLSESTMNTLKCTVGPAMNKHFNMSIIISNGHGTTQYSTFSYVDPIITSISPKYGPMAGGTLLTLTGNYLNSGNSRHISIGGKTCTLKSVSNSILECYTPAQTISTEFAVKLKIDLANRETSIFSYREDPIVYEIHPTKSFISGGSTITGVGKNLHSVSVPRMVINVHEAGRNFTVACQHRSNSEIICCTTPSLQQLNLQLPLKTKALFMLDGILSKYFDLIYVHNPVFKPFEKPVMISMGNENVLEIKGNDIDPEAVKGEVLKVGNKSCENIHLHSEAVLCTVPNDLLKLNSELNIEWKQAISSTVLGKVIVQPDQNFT
Assay: ELISA: MET ECD immobilized (100 ng/well), mAb in human IgG1/lambda format in solution (0-40 nM), HRP anti-human Fc
value-kind: EC50 (read off the curve)

Consider the worked cases shown below.
[[record]]
binder = "71D4 llama-human chimeric mAb (human IgG1/lambda) (antibody, V domains shown) VH: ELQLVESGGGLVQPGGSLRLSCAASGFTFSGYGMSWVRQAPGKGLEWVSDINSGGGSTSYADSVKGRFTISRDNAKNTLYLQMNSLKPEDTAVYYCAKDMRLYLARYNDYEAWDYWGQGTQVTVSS VL: SSALTQPSALSVTLGQTAKITCQGGSLGSSYAHWYQQKPGQAPVLVIYDDDSRPSGIPERFSGSSSGGTATLTISGAQAEDEGDYYCQSADSSGNAAVFGGGTHLTVLQ"
test_value = "~0.1 nM"

[[record]]
binder = "76H10 llama-human chimeric mAb (human IgG1/lambda) (antibody, V domains shown) VH: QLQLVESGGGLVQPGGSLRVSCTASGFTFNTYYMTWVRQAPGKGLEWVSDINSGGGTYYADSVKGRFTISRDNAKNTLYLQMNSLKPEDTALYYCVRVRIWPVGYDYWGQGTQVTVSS VL: QAVVTQEPSLSVSPGGTVTLTCGLSSGSVTTSNYPGWFQQTPGQAPRTLIYNTNNRHSGVPSRFSGSISGNKAALTITGAQPEDEADYYCSLYTGSYTTVFGGGTHLTVLQ"
test_value = "~0.04 nM"

[[record]]
binder = "71A3 llama-human chimeric mAb (human IgG1/lambda) (antibody, V domains shown) VH: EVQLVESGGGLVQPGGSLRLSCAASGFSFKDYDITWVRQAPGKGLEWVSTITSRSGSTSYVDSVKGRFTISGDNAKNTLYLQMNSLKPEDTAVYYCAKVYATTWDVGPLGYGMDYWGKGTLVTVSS VL: SYELTQPSALSVTLGQTAKITCQGGSLGSSYAHWYQQKPGQAPVLVIYDDDSRPSGIPERFSGSSSGGTATLTISGAQAEDEGDYYCQSADSSGNAAVFGGGTHLTVLQ"
test_value = "~0.1 nM"


Next up:
IN: Quick one: EC50 (read off the curve) of 71C3 llama-human chimeric mAb (human IgG1/lambda) (antibody, V domains shown) VH: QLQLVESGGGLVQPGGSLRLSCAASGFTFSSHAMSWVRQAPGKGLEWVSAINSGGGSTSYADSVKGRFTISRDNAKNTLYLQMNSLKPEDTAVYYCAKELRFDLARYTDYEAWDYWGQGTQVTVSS VL: SYELTQPSALSVTLGQTAKITCQGGSLGSSYAHWYQQKPGQAPVLVIYDDDSRPSGIPERFSGSSSGGTATLTISGAQAEDEGDYYCQSADSSGNAAVFGGGTHLTVLQ ?
OUT: ~0.1 nM

Data credit: patent US20190315873A1
